target: RanGTP-importin-beta complex (human Ran / KPNB1); experiment: disruptors of RanGTP/KPNB1 binding – biochemical, FRET, CFP/YFP, cell-free homogeneous, confirmation (AID 2823); conditions: CFP-Ran/YFP-importin-beta FRET ratio
Activity calls are given as the source filed them. How the calls were made is not given here.
Respond using exactly one of the listed classes: 1 (yes) for active, 0 (no) for inactive

**Query** Hi, do you know how COc1ccc(Cn2c(=N)c(C(=O)NC3CCCCC3)cc3c(=O)n4ccccc4nc32)cc1 came out in this test?
**Result** 1 (yes)

**Query** // param item: COc1ccccc1/C=C/c1nc(C#N)c(N(C)C)o1 ; yields the recorded call
**Result** 1 (yes)

**Query** How was COc1cc(OC)cc(C(=O)NCCNc2nc3cc(C)cc(C)c3cc2C#N)c1 classified in this test?
**Result** 1 (yes)

**Query** Name the outcome recorded for CC(C)n1c(O)c(C2c3cc(Cl)ccc3Oc3[nH]c(=O)n(C(C)C)c(=O)c32)c(=O)[nH]c1=O (configuration not stated) in the assay.
**Result** 0 (no)

**Query** How was COc1ccc(Oc2nc3c(C)cccn3c(=O)c2/C=C(\C#N)C(N)=O)cc1 classified in this test?
**Result** 1 (yes)

**Query** Test call, this molecule: OCC1(Cc2cccc(Cl)c2)CCCN(Cc2ccc3cc(F)ccc3n2)C1 (configuration not stated)
**Result** 0 (no)

**Query** # outcome recorded in this test, key = COc1ccccc1NC(=O)CN1CCN(CC(=O)Nc2ccc(C)c(F)c2)CC1
**Result** 0 (no)

**Query** How did this test come out for CCN(CC(=O)Nc1cccc(S(=O)(=O)N2CCCCC2)c1)Cc1ccccc1 ?
**Result** 0 (no)

**Query** Could you kindly confirm the outcome this assay logged for COCCOC(=O)C1=C(C)OC(N)=C(C(=O)OC)C12C(=O)Nc1ccccc12 (configuration not stated) ?
**Result** 0 (no)

**Query** Answer briefly: the call reported for COc1ccc(/C=N/NC(=O)c2sc3nc(C)cc(C)c3c2N)cc1 in this assay.
**Result** 1 (yes)

**Query** Called result for CN(CCOc1ccccc1)CC(=O)Nc1ccc(Cl)cc1[N+](=O)[O-]
**Result** 0 (no)

**Query** Which outcome was assigned to CC(C)Cc1nn2c(N)c(/C=C3\C=Nc4ccccc43)c(=O)nc2s1 in this test?
**Result** 0 (no)

**Query** Outcome logged for CCC(=O)N(CC(=O)Nc1sc(C)c(C)c1C(N)=O)C1CCCC1 in this assay:
**Result** 0 (no)

**Query** Could you kindly confirm the outcome this assay logged for Cc1c(Br)c(=O)oc2c(Br)c(O)c(O)cc12 ?
**Result** 1 (yes)

**Query** What classification did COc1ccc(-n2c(N)c(C(=O)NCc3ccco3)c3nc4ccccc4nc32)c(OC)c1 end up with in this test?
**Result** 1 (yes)

**Query** What did the test return for CCSc1nnc(-c2cc(Br)ccc2N=Cc2c(C)[nH]n(-c3ccccc3)c2=O)c(=O)[nH]1 ?
**Result** 0 (no)

**Query** Which result was noted for this molecule in the test: COc1ccc2cc(C(C)=O)c(=O)oc2c1
**Result** 1 (yes)

**Query** Please indicate how the test categorized CCOC(=O)C1=C(C)NC2=C(C(=O)C(C(=O)OCC)C(c3cccc(OC)c3)C2)C1c1ccccn1 (configuration not stated) .
**Result** 1 (yes)

**Query** Which outcome did this test record for the molecule Cc1ccc(-n2c(=O)c(C#N)cc3c(=O)n4ccccc4nc32)cc1C ?
**Result** 0 (no)

**Query** Hey, what did the test say about COC(=O)c1ccc2c(C(C)(C)O)c(C(C)(C)O)[nH]c2c1 ?
**Result** 0 (no)

**Query** // outcome(item) with item = Cc1ccc(NC(=O)COC(=O)Cc2ccsc2)c(C)c1
**Result** 0 (no)

**Query** For CCOCCCn1c(=N)c(C(=O)NCc2ccc3c(c2)OCO3)cc2c(=O)n3cccc(C)c3nc21 , what call appears in the results of this test?
**Result** 1 (yes)

**Query** I would be grateful if you could indicate the recorded call for Cc1ccc(OCc2nnc(SCC(=O)CC(=O)Nc3ccccc3)o2)cc1 .
**Result** 0 (no)

**Query** I would be grateful if you could indicate the recorded call for CCCOC(=O)CSC1=C(C#N)C(c2ccccc2OCC)C(C#N)C(=O)N1 (configuration not stated) .
**Result** 0 (no)

**Query** Assay result, entry CCCc1cc(=O)oc2c(CN3CCN(C)CC3)c(O)c(Cl)cc12 — outcome?
**Result** 1 (yes)

**Query** Tell me the assay call for CCn1nc(NC(=O)c2ccncc2)c2cc3ccc(C)cc3nc21 please.
**Result** 1 (yes)

**Query** Query: recorded result category for N#C/C(=C\c1ccc(N2CCOCC2)o1)C(=O)N1CCOCC1 in this test
**Result** 1 (yes)
